src = patent US20220064329A1

Molecular target: T1, recombinant human activated Factor VII (FVIIa) (human, UniProt P08709 61-212; P08709 213-466, ten glutamate residues of the Gla domain may be gamma-carboxylated)
T1 construct: chains tethered by a disulfide bond; also called Factor VIIa; rFVIIa
T1 sequence 1: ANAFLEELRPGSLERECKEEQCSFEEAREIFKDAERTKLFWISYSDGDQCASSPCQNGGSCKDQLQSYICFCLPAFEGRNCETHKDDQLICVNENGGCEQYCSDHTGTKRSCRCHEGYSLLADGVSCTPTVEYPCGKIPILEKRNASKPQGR
T1 sequence 2: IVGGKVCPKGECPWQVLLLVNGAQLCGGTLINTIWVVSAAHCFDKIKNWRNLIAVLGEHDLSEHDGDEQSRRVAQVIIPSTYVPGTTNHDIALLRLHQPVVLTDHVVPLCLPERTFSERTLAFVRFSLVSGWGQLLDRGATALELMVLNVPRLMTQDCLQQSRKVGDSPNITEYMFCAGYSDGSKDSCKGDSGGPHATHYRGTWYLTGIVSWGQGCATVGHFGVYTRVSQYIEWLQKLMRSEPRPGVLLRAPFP
Assay: BLI (Fortebio)
Listing of recorded Kd by entry.
Report the value in nM with no unit label.

Solved entries:
VH SEQ ID NO 626 / VL SEQ ID NO 318 (antibody, IgG4, V domains shown, humanized 11F2; IgG4 S228P/kappa) VH: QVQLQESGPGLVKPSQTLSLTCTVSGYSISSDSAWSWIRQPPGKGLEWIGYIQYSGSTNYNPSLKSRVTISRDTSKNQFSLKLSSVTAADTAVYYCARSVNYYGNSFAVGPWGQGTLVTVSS VL: EIVLTQSPATLSLSPGERATLSCRASQGISDYLHWYQQKPGEAPRLLIKYTSQPATGIPARFSGSGSGTDFTLTISSLEPEDFAVYYCQNGHSFPLTFGQGTKLEIK: 0.71
VH SEQ ID NO 522 / VL SEQ ID NO 366 (antibody, IgG4, V domains shown, humanized 11F2; IgG4 S228P/kappa) VH: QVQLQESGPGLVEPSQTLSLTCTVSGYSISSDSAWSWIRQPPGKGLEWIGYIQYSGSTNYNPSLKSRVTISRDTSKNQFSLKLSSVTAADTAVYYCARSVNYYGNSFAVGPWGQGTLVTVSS VL: EIVLTQSPATLSLSPGERATLSCRASQGLSDYLAWYQQKPGEAPRLLIKYASQPATGIPARFSGSGSGTDFTLTISSLEPEDFAVYYCQNGHSFPLTFGQGTKLEIK: 14

Turning now to a further binder:
Name the reported Kd value associated with the binder VH SEQ ID NO 634 / VL SEQ ID NO 310 (antibody, IgG4, V domains shown, humanized 11F2; IgG4 S228P/kappa) VH: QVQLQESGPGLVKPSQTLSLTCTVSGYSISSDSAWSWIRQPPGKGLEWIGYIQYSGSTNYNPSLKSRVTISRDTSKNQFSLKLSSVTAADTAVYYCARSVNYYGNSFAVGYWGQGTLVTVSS VL: EIVLTQSPATLSLSPGERATLSCRASQGISDYLAWYQQKPGQAPRLLIKYASQPATGIPARFSGSGSGTDFTLTISSLEPEDFAVYYCQNGHSFPLTFGQGTKLEIK
2.1
